- Test system: 786-0 renal
- TEST NAME: NCI tumour cell line growth inhibition, 48 h
TEST READOUT: TGI (µM)
Give bare numbers, in µM.

- C[C@@H]1C[C@H](C)CN(S(=O)(=O)c2ccc3c(NO)c4ccc(S(=O)(=O)N5C[C@H](C)C[C@H](C)C5)cc4c(N=O)c3c2)C1: 0.309

Go through the items and report each one's TGI.
1. N#Cc1ccccc1C(Cl)(Cl)c1cnccn1
2. O=c1c2cc(F)ccc2sc2c(N3CCNCC3)nc3ccc(F)cc3c12
3. Cc1nc(C)c(N2CCN(S(=O)(=O)N(Cc3ccccc3)Cc3ccccc3)CC2)c(=O)[nH]1
4. N#CN/C(N)=N/C/N=C(\N)NC#N

[32.3, 2.98, 23.5, 60.8]

====

- Test system: K-562 leukemia
- TEST NAME: NCI tumour cell line growth inhibition, 48 h; in the data active = GI50 below about 0.43 µM; inactive = the rest
// one of true (1) for active, false (0) for inactive, no free text

- Cn1c(C(=O)c2ccncc2)cc2ccccc21: false (0)

Which outcome was entered for the compound `CCOC(=O)Nc1nc2ccc(OC)cc2s1` in this test?
false (0)

And then CC(=O)c1ccc2c(c1)C1C=CCC1[C@H](c1cc3c(cc1Br)OCO3)N2 (stereo not given in full) , what is it?
false (0)

Entry `O=[N+]([O-])c1cc(Cl)c2[nH]c3c(Cl)cc([N+](=O)[O-])cc3c2c1` please
true (1)

Queued: `COc1ccc2c(=O)cc(-c3ccccc3)[nH]c2c1`
false (0)

How about `Cc1nc(-c2ccccc2)n2nc(NCCCN3CCOCC3)ncc12` ?
false (0)

Subsequent entry: O=C(/C=C/C12c3ccccc3C(c3ccccc31)C1C(=O)NC(=O)C12)c1ccc(Cl)cc1Cl (stereo not given)
false (0)

Same question for `CCOC(=O)C(Cc1c[nH]c2c(N(CCO)CCO)cccc12)(NC(C)=O)C(=O)OCC` please.
false (0)

Now try `COc1cc2ncn(-c3cc(OCc4ccccc4C(F)(F)F)c(C(=O)N(C)C)s3)c2cc1OC` .
false (0)

Here is the next compound: `COc1ccc(/C=C/C(=O)/C=C/c2cc3ccccc3[nH]c2=O)cc1`
false (0)

====

- Tested on: MOLT-4 leukemia
- TEST NAME: NCI tumour cell line growth inhibition, 48 h; in the data active = GI50 below about 0.43 µM; inactive = the rest
Response enum: class 1 for active, class 0 for inactive

- O=C(O)c1ccc(NCn2nc(-c3ccccc3O)oc2=S)cc1: class 0

Outcome logged for CC(=O)Oc1ccc(C23c4ccccc4C2(OC(C)=O)c2cc(OC(C)=O)ccc23)cc1 (stereo not given) in this assay:
class 0

Same again, this time with `COc1ccc(-c2cs/c(=N\N=C\c3ccc(O)cc3O)n2/N=C/c2ccc(O)cc2O)cc1`
class 0

Would you mind doing `COc1ccc2cc(/C=C/C(=O)c3ccc(Cl)cc3Cl)ccc2c1` as well?
class 0

Ok, now `Nc1nonc1-c1nc2cnccc2n1C1CC1`
class 0

`C=CCn1c(C)nc2ccc(Nc3nc(Nc4ccc(F)cc4)nc4ccccc34)cc21` ?
class 0

Next compound up: `OCc1ccc(N2CCc3cccc(F)c3C2)cc1Cl`
class 0

Try this compound next: O=C(/C=C/c1ccccc1)C(Br)C(Br)c1ccccc1 (stereo not given)
class 0

Also need `Cc1ncc(C(=O)Nc2ccc(CN3CCN(C)CC3)c(C(F)(F)F)c2)cc1C#Cc1cnc2cccnn12` , thanks.
class 1

Now give it for `CC[C@H](Nc1ncnc2nc[nH]c12)c1nc2cccc(F)c2c(=O)n1-c1ccccc1` too.
class 0

Here is the next compound: `COC(=O)c1cc2c3ccccc3n3c(=O)c4cc5ccc(N(S(=O)(=O)c6ccc(C)cc6)S(=O)(=O)c6ccc(C)cc6)cc5nc4c(n1)c23`
class 0

`COc1cc(F)c(F)c(Nc2ccc(I)cc2F)c1NS(=O)(=O)C1(C[C@H](O)CO)CC1` , same question.
class 0

Entry `COc1cc2nc(SCc3cc(OC)c(OC)c(OC)c3)n(Cc3ccccc3)c(=O)c2cc1OC` please
class 0

Please give the result for `CN(Cc1cnc2nc(N)nc(N)c2n1)c1ccc(C(=O)N[C@@H](CCC(=O)O)C(=O)O)cc1` too.
class 1

Follow-up entry: `CC(C)c1c(-c2ccccc2)nc2c(C#N)c[nH]n2c1=O`
class 0

====

- Tested on: CAKI-1 renal
- TEST NAME: NCI tumour cell line growth inhibition, 48 h; in the data active = GI50 below about 0.43 µM; inactive = the rest
Choose one outcome from this list and give only that: 1 = active, -1 = inactive

What call does the record list for `CC[C@H](Nc1ncnc2nc[nH]c12)c1nc2cccc(F)c2c(=O)n1-c1ccccc1` ?
-1

Check COC(=O)C1C(O)CCC2CN3CCc4c([nH]c5ccccc45)C3CC21 (configuration not stated) too.
-1

Next compound up: CCC(O)c1ccc(Br)cc1NC(=O)c1cccc(Cl)c1 (configuration not stated)
-1

Also need `COc1cc(OC)c(C(=O)/C=C/c2cc3c(cc2OCc2ccccc2)OC(C)(C)CC3)cc1CC=C(C)C` , thanks.
-1

====

- Test system: SK-MEL-28 melanoma
- TEST NAME: NCI tumour cell line growth inhibition, 48 h; in the data active means GI50 below about 0.43 µM; inactive means the rest
Pick from yes for active, no for inactive when you respond.

* O=S(=O)(NCCNc1nccc(-c2c(-c3ccc(F)c(O)c3)nc3sccn23)n1)c1ccc(F)cc1 | no
* CC(=O)c1ccc2c(c1)C1C=CCC1[C@H](c1cc3c(cc1Br)OCO3)N2 (stereo not given in full) | no

What did the test return for `C[C@@H]1C[C@H](C)CN(S(=O)(=O)c2ccc3c(NO)c4ccc(S(=O)(=O)N5C[C@H](C)C[C@H](C)C5)cc4c(N=O)c3c2)C1` ?
yes

Next up: `[C](#Cc1ccccc1)[Hg][C]#Cc1ccccc1`
no

Same read-out for `COc1cc(F)c(F)c(Nc2ccc(I)cc2F)c1NS(=O)(=O)C1(C[C@H](O)CO)CC1` ?
yes

====

What GI50 was measured for each of the following?
- Tested on: SF-539 CNS
- TEST NAME: NCI tumour cell line growth inhibition, 48 h

Some compounds with known GI50 results, for comparison:
- CCCCCCCCCCCCCCCCCC1=NC(C)(C)CN1CC(C)O (stereo unspecified): 4.03 µM
- O=C(Nc1cc(C(F)(F)F)ccc1Cl)c1ccc(NC2=C(Cl)C(=O)N(Cc3ccccc3)C2=O)cc1: 28.9 µM
- CC[n+]1oc(C(=O)c2ccc(Cl)cc2)c(-c2ccccc2)c1-c1ccccc1.[Cl][Fe]([Cl])([Cl])[Cl]: > 100 µM
- COc1ccc2cc(/C=C/C(=O)c3ccc(Cl)cc3Cl)ccc2c1: 72.9 µM
- O=[N+]([O-])c1cc(Cl)c2[nH]c3c(Cl)cc([N+](=O)[O-])cc3c2c1: 0.653 µM

Record GI50 per entry; entries follow.
1. COc1cc2ncn(-c3cc(OCc4ccccc4C(F)(F)F)c(C(=O)N(C)C)s3)c2cc1OC
2. Nc1ccccc1C#C/C=C\C#Cc1ccc(OCCCNC(=O)c2cc3ccccc3[nH]2)cc1

["> 25 µM", "18.2 µM"]

Below are 4 compounds. Give each one its GI50.
1. COc1ccc(S(=O)(=O)N2CCN(C(=O)c3ccc(-c4ccccc4)cc3)CC2C(=O)NO)cc1 (stereo unspecified)
2. Cc1nc(-c2ccccc2)n2nc(NCCCN3CCOCC3)ncc12
3. Cc1ncc(C(=O)Nc2ccc(CN3CCN(C)CC3)c(C(F)(F)F)c2)cc1C#Cc1cnc2cccnn12
4. COc1ccc(-c2ccncc2)cc1C(N)=O

1. 1.98 µM
2. > 25 µM
3. 0.485 µM
4. > 25 µM

====

Provide the recorded TGI for the entries that follow.
- Tested on: K-562 leukemia
- TEST NAME: NCI tumour cell line growth inhibition, 48 h

Batch request: TGI for each of the following compounds.
1. CCNc1cc(-c2cccc(OC(F)(F)F)c2)nc2ccc(N3CCCC3)cc12
2. O=C(/C=C/c1ccccc1)C(Br)C(Br)c1ccccc1 (stereo unspecified)
3. COc1ccccc1C#Cc1ccccc1C#CCCCCO
4. [N-]=[N+]=NC(c1cn(C2CC(O)C(CO)O2)c(=O)[nH]c1=O)C(Br)Br (stereo unspecified)
5. [N-]=[N+]=NC1OC(=O)C(Cl)=C1N=P(c1ccccc1)(c1ccccc1)c1ccccc1 (stereo unspecified)

1: 4.3 µM; 2: 1.25 µM; 3: > 100 µM; 4: > 100 µM; 5: > 10 µM

TGI lookup needed for `O=C1c2ccccc2-[n+]2ccc3c([nH]c4ccccc43)c21` , thanks.
3.31 µM

====

- System: UACC-257 melanoma
- TEST NAME: NCI tumour cell line growth inhibition, 48 h
TEST READOUT: TGI (µM)
One number for each entry, in µM.

Below are worked cases with known answers.
- C=CCNc1nc2c(s1)C(=O)c1ccccc1C2=O: 7.2
- COc1ccc(-c2cs/c(=N\N=C\c3ccc(O)cc3O)n2/N=C/c2ccc(O)cc2O)cc1: 6.19
- c1ccc(C(NCC2CCO2)(c2ccccc2)c2ccccc2)cc1 (stereo not given): 39.5

Any idea what TGI was measured for `O=c1c2cc(F)ccc2sc2c(N3CCNCC3)nc3ccc(F)cc3c12` ?
3.7
